assay-explanation: chemical genetic growth profiling, strain panel (AID 1159580);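 note: tested at 20 µM; growth read once vehicle control cultures reached saturation at 30 °C; 1 = growth at the plate median or of vehicle wells; lower values mean less growth of the strain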
assay-context: S. cerevisiae deletion strains, growth OD, locus YOR106W, strain vam3, active compounds read low
About 2,000 (36%) of roughly 5,500 compounds were called active. Not shown: some 18% with an inconclusive outcome. Some of the results follow.
// classify: if (normalized growth < 1) Yes else No

# count of solved cases: 5
molecule	assigned-category
C[C@]12CCC3C(CC[C@]4(O)C[C@@H](O)CC[C@]34C=O)[C@@]1(O)CCC2C1=CC(=O)OC1 (stereo not given in full)	Yes
O=c1c(O)cc([C@H]2Oc3cc(O)cc(O)c3C[C@H]2O)cc2c([C@H]3Oc4cc(O)cc(O)c4C[C@H]3O)cc(O)c(O)c12	No
NS(=O)(=O)c1cc2c(cc1C(F)(F)F)NC(Cc1ccccc1)NS2(=O)=O (stereo not given)	Yes
CCc1ccc2c(O)c3c(cc2c1C(=O)OC)C(=O)c1c(O)ccc(O)c1C3=O	Yes
CC(=O)N1CCN(c2ccc(OCC3CO[C@](Cn4ccnc4)(c4ccc(Cl)cc4Cl)O3)cc2)CC1 (stereo not given in full)	Yes

Hi there! Is normalized growth for CC[C@@]1(O)C(=O)OCc2c1cc1n(c2=O)Cc2cc3ccccc3nc2-1 below 1, do you know? Yes

Hello, I'm reviewing records and need to know if normalized growth of Cc1ccccc1N1C(=O)c2cc(S(N)(=O)=O)c(Cl)cc2NC1C (stereo not given) is below 1. Could you check? Yes

----------
assay-explanation: chemical genetic growth profiling, strain panel (AID 1159580)
assay-context: S. cerevisiae deletion strains, growth OD, locus YIL066C, strain RNR3, active compounds read low
Among all 5,500 compounds or so, about 2,000 (36%) were called active. About 18% were inconclusive and are not listed. Some of the results follow.
measurement-name: normalized growth
The answer should be a number; do not append a unit.

Some entries whose results are on file:
compound	measurement-name	meas-value
CO[C@@H]1C[C@H](O[C@H]2CC[C@]3(C)C4CC[C@]5(C)[C@@H](C6=CC(=O)OC6)CC[C@]5(O)[C@@H]4CC[C@]3(O)C2)O[C@H](C)[C@@H]1O (stereo not given in full)	normalized growth	0.956
NC(=O)c1cc([N+](=O)[O-])cc([N+](=O)[O-])c1	normalized growth	1.01
CC(C)(C)NCC(O)COc1cccc2c1C[C@H](O)[C@H](O)C2 (stereo not given in full)	normalized growth	1
COC(=O)[C@H]1[C@H]2C[C@H]3c4[nH]c5cc(OC)ccc5c4CCN3C[C@H]2C[C@@H](OC(=O)c2cc(OC)c(OC)c(OC)c2)[C@@H]1OC	normalized growth	1.01

--- query ---
Reported normalized growth, compound CC(C)=CC1C(CO)C1(C)C (stereo not given) : ____ 1.04

----------
assay-explanation: chemical genetic growth profiling, strain panel (AID 1159580)
assay-context: S. cerevisiae deletion strains, growth OD, locus YGR252W, strain gcn5, active compounds read low
The whole screen tested about 5,500 compounds, of which about 2,000 (36%) were called active. About 18% were inconclusive and are not listed. The list shows a part of the results.
Label T when normalized growth < 1; otherwise F.

compound	assigned-category
Cc1c(OCC(F)(F)F)ccnc1CS(=O)c1nc2ccccc2[nH]1 (stereo not given)	T
CC(=O)N1CCCC1C(=O)O (stereo not given)	F
O=C(O)c1cc(O)ccc1O	F
CC1(C)[C@@H]2CC[C@@]1(C)C(=O)C2	T
COc1cccc2c1CCC1=CC(=O)CC[C@@]12C	T

Please examine the following record next.
hey, is normalized growth for COC1=CC(=O)C=C(OC)C1=O lower than 1 or not? F

----------
The following molecules are shown together with reported normalized growth values.
assay-explanation: chemical genetic growth profiling, strain panel (AID 1159580);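 note: tested at 20 µM; growth read once vehicle control cultures reached saturation at 30 °C; 1 = growth at the plate median or of vehicle wells; lower values mean less growth of the strain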
assay-context: S. cerevisiae deletion strains, growth OD, locus YOR070C, strain gyp1, active compounds read low
In all, about 5,500 compounds went through this assay and about 2,000 (36%) were called active. Another 18% or so got no clear call; they are omitted. This is one part of the list.
API note: the answer field is a bare number with no unit suffix.

molecule	meas-value
CC(=O)O[C@@H]1c2c(ccc3ccc(=O)oc23)OC(C)(C)[C@@H]1OC(=O)CC(C)C	1
COc1ccc(-c2cc(=O)c3c(O)cc(O)c(-c4cc(-c5cc(=O)c6c(O)cc(O)cc6o5)ccc4OC)c3o2)cc1	1
CC(C)Nc1nc(Cl)nc(NC(C)C)n1	1.01
CC1=CC(=O)C(C(C)C)=CC1=O	0.976
CC(=O)OC1CC[C@@]2(C)C(CCC3C2CC[C@]2(C)C(C4=CC(=O)OC4)C(OC(C)=O)CC32O)C1 (some centres undefined)	0.995
CSc1nc(NC(C)C)nc(NC(C)C)n1	0.962

GET /values?readout=normalized growth&item= COc1nc(NC(C)C)nc(NC(C)C)n1 1.03

Which normalized growth is reported for this molecule? COC(=O)CC1C(C)(C)C(OC(C)=O)[C@@H]2[C@@H](OC(C)=O)[C@]34O[C@@]2(O)[C@]1(C)C3CC[C@]1(C)C4=CC(=O)O[C@H]1c1ccoc1 (some centres undefined) 1.01

Requested read-out: normalized growth. Entry: CCn1nc(C(=O)O)c(=O)c2cc3c(cc21)OCO3 1

normalized growth lookup needed for COc1cc(O)c2c(=O)cc(-c3ccc(OC)c(-c4c(O)cc(O)c5c(=O)cc(-c6ccc(O)cc6)oc45)c3)oc2c1 , thanks. 1.02

What does the record list as normalized growth for CCc1ccc2c(O)c3c(cc2c1C(=O)OC)C(=O)c1c(O)ccc(O)c1C3=O ? 0.988

Consider the molecule CC(=O)O[C@@H]1CC2C(C)(CC[C@H](O)C2(C)C)C2CC[C@]3(C)C(=CC(=O)O[C@H]3c3ccoc3)C21C (some centres undefined) and give its measured normalized growth. 0.993

Entry under review: COC(=O)N/N=C\c1c[n+]([O-])c2ccccc2[n+]1[O-] . Reported normalized growth? 0.979

Which normalized growth is listed for COC1C(O)C(O[C@H]2CC[C@]3(C=O)C4C(CC[C@]3(O)C2)[C@@]2(O)CC[C@H](C3=CC(=O)OC3)[C@@]2(C)C[C@H]4OC(C)=O)OC(C)C1OC(C)=O (some centres undefined) ? 0.989

// normalized growth lookup, key: CC(C)=CC1C(CO)C1(C)C (centres undefined) 1.02

I am curious: what normalized growth value has been reported for CC(C)(C)NCC(O)COc1cccc2c1C[C@H](O)[C@H](O)C2 (some centres undefined) ? 1

Which normalized growth reading was recorded for the molecule Nc1ccc(S(=O)(=O)Nc2ncccn2)cc1 ? 0.991

Fill in the blank: the reported normalized growth of COc1cc2c(cc1OC)-c1c(oc3cc(O)cc(O)c3c1=O)CO2 is ____. 1.02

So what's the measured normalized growth for this one? C[C@@H]1CC[C@@]23CCC4(C)[C@@](C=CC5[C@@]6(C)CC[C@H](O)C(C)(C)C6CC[C@]54C)(OC2=O)C3[C@H]1C (some centres undefined) 1.03

----------
assay-explanation: chemical genetic growth profiling, strain panel (AID 1159580);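 note: tested at 20 µM; growth read once vehicle control cultures reached saturation at 30 °C; 1 = growth at the plate median or of vehicle wells; lower values mean less growth of the strain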
assay-context: S. cerevisiae deletion strains, growth OD, locus YLR262C, strain YPT6, active compounds read low
Hit rate of the full screen: of about 5,500 compounds, about 2,000 (36%) were called active. Not shown: some 18% with an inconclusive outcome. Some of the results follow.
measurement-name: normalized growth
Answer as a number with no unit attached.

// query normalized growth value for entry C[C@H]1O[C@@H](O[C@H]2[C@@H](O)C[C@H](O[C@H]3[C@@H](O)C[C@H](O[C@H]4CC[C@]5(C)C6CC[C@]7(C)[C@@H](C8=CC(=O)OC8)CC[C@]7(O)C6CC[C@@H]5C4)O[C@@H]3C)O[C@@H]2C)C[C@H](O)[C@@H]1O (stereo not given in full) 0.992

Field request: normalized growth | item: CC(=O)O[C@@H]1c2c(ccc3ccc(=O)oc23)OC(C)(C)[C@@H]1OC(=O)CC(C)C 0.889

----------
Recorded normalized growth for the following compounds
assay-explanation: chemical genetic growth profiling, strain panel (AID 1159580);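 note: tested at 20 µM; growth read once vehicle control cultures reached saturation at 30 °C; 1 = growth at the plate median or of vehicle wells; lower values mean less growth of the strain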
assay-context: S. cerevisiae deletion strains, growth OD, locus YOR061W, strain CKA2, active compounds read low
The whole screen tested about 5,500 compounds, of which about 2,000 (36%) were called active. About 18% were inconclusive and are not listed. The list shows a part of the results.
Number only, please.

compound	meas-value
Clc1cccc(Cl)c1C1CC(c2ccccc2)=Nc2ccccc2S1 (stereo unspecified)	0.978
OC(COCc1ccccc1)Cn1c2ccccc2c2ccccc21 (stereo unspecified)	0.924
O=C(O/N=C1/CCCc2[nH]c3ccccc3c21)c1ccc(Cl)cc1Cl	0.935
COC(=O)/C=C1/OC(c2ccc(OC)cc2)=CC1=O	0.308
CC1(C)C=Cc2cc(/C(N)=N\OC(=O)Nc3cccc(C(F)(F)F)c3)ccc2O1	0.945

Next item in the queue.
Can you look up the measured normalized growth of Cc1ccccc1N1C(=O)c2cc(S(N)(=O)=O)c(Cl)cc2NC1C (stereo unspecified) for me? 0.993
